- Tested on: Vero E6 infected with SARS-CoV-2
- protocol.details: inhibition of SARS-CoV-2 cytopathic effect; higher = more antiviral protection, active = above 15
- applied.conditions: 10000 nM; 48 h
metric: inhibition of SARS-CoV-2 cytopathic effect (%)
All answers are understood in %, so give the number only.

Reference set, count: 3
COc1cc2c(NC3CCN(C(C)C)CC3)nc(N3CCC(F)(F)CC3)nc2cc1OCCCN1CCCC1 ... 68.5
Cn1nc(C(C)(C)C)cc1C(=O)N[C@@H](Cc1cccc(Cl)c1)C(=O)NCC#N ... -1.36
CN(C)[C@@H]1CCc2[nH]c3ccc(NC(=O)c4ccc(F)cc4)cc3c2C1 ... 4.97

Please find the next molecule below.
Report inhibition of SARS-CoV-2 cytopathic effect for CC(=O)c1ccc2c(c1)C(=O)C1(CC1)O2 please.
2.1

----------
- Tested on: Vero E6 infected with SARS-CoV-2
- protocol.details: inhibition of SARS-CoV-2 cytopathic effect; higher = more antiviral protection, active = above 15
- applied.conditions: 1 nM; 48 h
metric: inhibition of SARS-CoV-2 cytopathic effect (%)
The response must be a number in % with no trailing unit.

COc1ccc2cc(OCC3(C(=O)O)CN(C(=O)c4ccc(F)cc4)C3)ccc2c1 ... 2.48
N[C@H]1C[C@@H]1c1ccccc1 (racemic) ... 0.8
N#Cc1c(N)nc(SCC(N)=O)c(C#N)c1-c1ccc(OCC2CC2)cc1 ... 4.36
CC[C@@H](c1ccc(F)c(F)c1)n1c(C(=O)OC)c(-c2ccno2)[nH]c1=S ... 1.31
O=C(O)CCCCCCCC(=O)O ... 24.2

Provide the documented inhibition of SARS-CoV-2 cytopathic effect with Vero E6 infected with SARS-CoV-2 as the system for CC[C@H]1OC(=O)[C@H](C)C(=O)[C@H](C)[C@@H](O[C@@H]2O[C@H](C)C[C@H](N(C)C)[C@H]2O)[C@](C)(OC)C[C@@H](C)C(=O)[C@H](C)[C@H]2N(CCCCn3cnc(-c4cccnc4)c3)C(=O)O[C@]12C
-2.13

Could you share what inhibition of SARS-CoV-2 cytopathic effect was measured for COc1c(C)cnc(Cn2cc(C#CCC(C)(C)O)c3c(Cl)nc(N)nc32)c1C , tested on Vero E6 infected with SARS-CoV-2?
2.11

----------
- Test system: Vero E6 infected with SARS-CoV-2
- protocol.details: inhibition of SARS-CoV-2 cytopathic effect; higher = more antiviral protection, active = above 15
- applied.conditions: 100 nM; 48 h
metric: inhibition of SARS-CoV-2 cytopathic effect (%)
Enter your answer as a number in %; do not include the unit.

Cc1ncc([N+](=O)[O-])n1CC(O)CN1CCOCC1 (stereo not given) [morinidazole] ... -0.51
CCC(=O)O[C@H]1[C@H](O[C@@H]2[C@@H](C)[C@H](O[C@H]3C[C@@](C)(OC)[C@@H](O)[C@H](C)O3)[C@@H](C)C(=O)O[C@H](CC)[C@@](C)(O)[C@H](O)[C@@H](C)C(=O)[C@H](C)C[C@@]2(C)O)O[C@H](C)C[C@@H]1N(C)C [erythromycin-estolate] ... 2.51
CCCCCCCCCCCCCCCCCCCCCC(=O)O ... 1.57

Form: Entry = O=C(O)CC(S)C(=O)O (stereo not given) [mercaptosuccinic-acid] | System = Vero E6 infected with SARS-CoV-2 | inhibition of SARS-CoV-2 cytopathic effect = ____
4.14

Request body: readout inhibition of SARS-CoV-2 cytopathic effect, system Vero E6 infected with SARS-CoV-2, query CCCCc1ccc(O)cc1O [rucinol] . Return the value.
2.12

Value wanted: inhibition of SARS-CoV-2 cytopathic effect (Vero E6 infected with SARS-CoV-2) of entry Nc1ccn(C[C@@H](CO)OCP(=O)(O)O)c(=O)n1 [cidofovir]
-1.45

Provide the documented inhibition of SARS-CoV-2 cytopathic effect with Vero E6 infected with SARS-CoV-2 as the system for CN/C(=N\CCSCc1nc[nH]c1C)NC#N [cimetidine]
-0.46

Enter reported inhibition of SARS-CoV-2 cytopathic effect observed with Vero E6 infected with SARS-CoV-2 for Cc1cc(C)c2c(c1)[C@@H](N(Cc1cc(C(F)(F)F)cc(C(F)(F)F)c1)c1nnn(C)n1)CCCN2C[C@H]1CC[C@H](C(=O)O)CC1 [evacetrapib]
-3.28

Please provide the recorded inhibition of SARS-CoV-2 cytopathic effect for NC[C@@](O)(c1ccc(Cl)cc1)c1ccc(-c2cn[nH]c2)cc1 , tested on Vero E6 infected with SARS-CoV-2.
-2.8

GET /values?readout=inhibition of SARS-CoV-2 cytopathic effect&system=Vero E6 infected with SARS-CoV-2&item= N#C[C@@H]1C[C@@H]2C[C@@H]2N1C(=O)[C@@H](N)C12CC3CC(CC(O)(C3)C1)C2
0.62
